tested on: Wnt activity (Sp5-Luc reporter, SW480 colon carcinoma cells); assay: Screening assay for Wnt activity: Sp5-Luc reporter gene assay in SW480 cells; format: cell-based; details: Homo sapiens, 42 h incubation, luminescence
pIC50: −log10 of the molar value.
Observation type: pIC50

1) Cn1cc(-c2ccc3[nH]nc(-c4nc5c(-c6cccc(F)c6)nccc5[nH]4)c3c2)cn1 | 7.96
2) CC(C)(C)C(=O)Nc1cncc(-c2ccc3[nH]nc(-c4nc5c(-c6ccsc6)nccc5[nH]4)c3c2)c1 | 7.56
3) O=C(Nc1cncc(-c2ccc3[nH]nc(-c4nc5c(-c6cccs6)nccc5[nH]4)c3c2)c1)C1CCCC1 | 7.46

(1) CN(C)Cc1cncc(-c2ccc3[nH]nc(-c4nc5c(N6CCCCC6)nccc5[nH]4)c3c2)c1
(2) CCC(=O)Nc1cncc(-c2ccc3[nH]nc(-c4nc5c(-c6cccs6)nccc5[nH]4)c3c2)c1
(3) CCC(=O)Nc1cncc(-c2ccc3[nH]nc(-c4nc5c(-c6cccc(F)c6)nccc5[nH]4)c3c2)c1
I would appreciate it if you could sort these 3 compounds by pIC50, starting from the smallest number. // list labels; follow requested order
1, 2, 3
